Molecular target: T1, TNFR1 (Homo sapiens, UniProt P19438)
T1 chain: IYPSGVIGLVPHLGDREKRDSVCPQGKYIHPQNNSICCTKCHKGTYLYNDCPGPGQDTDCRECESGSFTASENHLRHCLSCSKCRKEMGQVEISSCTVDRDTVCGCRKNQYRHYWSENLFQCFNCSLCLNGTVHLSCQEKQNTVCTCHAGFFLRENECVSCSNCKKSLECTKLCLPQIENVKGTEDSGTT
Experiment: yeast display SC50
Measured quantity: apparent Kd (screen) (nM)

Past entries and their recorded results:
binder="A87P (designed binder) MTLQELLREEALRRAEAEAFRYALELLAEKFPEQKEYLLDLAEEIESQIRSLSGVDVEDVRKFLDKEWAWVKELLAEHPAELAEVEPARAARLAELRAEVEAKVAA" result_units=nM reported_result=0.956
binder="K66V (designed binder) MTLQELLREEALRRAEAEAFRYALELLAEKFPEQKEYLLDLAEEIESQIRSLSGVDVEDVRKFLDVEWAWVKELLAEHPAELAEVEAARAARLAELRAEVEAKVAA" result_units=nM reported_result=0.653

A: R89M (designed binder) MTLQELLREEALRRAEAEAFRYALELLAEKFPEQKEYLLDLAEEIESQIRSLSGVDVEDVRKFLDKEWAWVKELLAEHPAELAEVEAAMAARLAELRAEVEAKVAA
B: R89D (designed binder) MTLQELLREEALRRAEAEAFRYALELLAEKFPEQKEYLLDLAEEIESQIRSLSGVDVEDVRKFLDKEWAWVKELLAEHPAELAEVEAADAARLAELRAEVEAKVAA
Inquiry: # query: argmin of apparent Kd (screen) over A and B Use the label to indicate which entry you chose.
Reply text: A
(A: 0.869 nM, B: 2.48 nM)
